The measured values listed here are drawn from ChEMBL document CHEMBL4725275.

- ASSAY COMMENT: Solubility of the compound
- Assay type: physicochemical
REPORTED ENDPOINT: solubility (µM)
Answers are plain numbers, in µM.

Input CC1CCCCC12NC(=O)N(CC(=O)Nc1ccc(C(F)(F)F)cc1)C2=O (stereo unspecified) . Output solubility: 100
